# assay method text: chemical genetic growth profiling, strain panel (AID 1159580);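 further: tested at 20 µM; growth read once vehicle control cultures reached saturation at 30 °C; 1 = growth at the plate median or of vehicle wells; lower values mean less growth of the strain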
# stated conditions: S. cerevisiae deletion strains, growth OD, locus YGR252W, strain gcn5, active compounds read low
Among all 5,500 compounds or so, about 2,000 (36%) were called active. Not shown: some 18% with an inconclusive outcome. The list shows a part of the results.
Listed here: items and their measured normalized growth.

| molecule | normalized growth |
| --- | --- |
| C[C@@H]1CC[C@@]23CCC4(C)[C@@](C=CC5[C@@]6(C)CCC(=O)C(C)(C)C6CC[C@]54C)(OC2=O)C3[C@H]1C (stereo partly drawn) | 1.02 |
| O=C(O)CN(CCN(CC(=O)O)CC(=O)O)CC(=O)O | 0.994 |
| CC1(C)C(=O)CC[C@@]2(C)C1C[C@@H](O)[C@@]1(C)C3=CC(=O)O[C@@H](c4ccoc4)[C@]3(C)CCC21 (stereo partly drawn) | 1 |
| NC[C@@H]1O[C@H](O[C@@H]2[C@@H](CO)OC(O[C@@H]3[C@@H](O)[C@H](N)C[C@H](N)[C@H]3O[C@H]3O[C@H](CO)[C@@H](O)[C@H](O)[C@H]3N)[C@@H]2O)[C@H](N)[C@@H](O)[C@@H]1O (stereo partly drawn) | 1.02 |
| CCC(=O)O[C@]1(C(=O)CCl)[C@@H](C)CC2C3CCC4=CC(=O)C=C[C@]4(C)[C@@]3(F)[C@@H](O)C[C@@]21C (stereo partly drawn) | 1.04 |
| CC[C@H]1CN2CCC1C[C@@H]2[C@@H](O)c1ccnc2ccc(OC)cc12 (stereo partly drawn) | 0.994 |
| NS(=O)(=O)c1cc2c(cc1C(F)(F)F)NC(Cc1ccccc1)NS2(=O)=O (stereo not drawn) | 1.01 |
| C[C@]12CCC(=O)C=C1CCc1ccc(O)cc12 | 0.961 |
| CC(=O)O[C@@H]1CC2C(C)(CC[C@H](O)C2(C)C)C2CC[C@]3(C)C(=CC(=O)O[C@H]3c3ccoc3)C21C (stereo partly drawn) | 0.946 |
| Nc1ccc(S(=O)(=O)Nc2ncccn2)cc1 | 0.957 |
| CC(=O)Oc1ccccc1C(=O)Oc1ccccc1C(=O)O | 0.966 |
| C[C@@H]1CC[C@@]23CCC4(C)[C@@](C=CC5[C@@]6(C)CC[C@H](O)C(C)(C)C6CC[C@]54C)(OC2=O)C3[C@H]1C (stereo partly drawn) | 1.07 |
| CCCCCC(O)C1C(=O)OC(C)C(O)/C=C/C=C/C=C/C=C/C=C(\C)C(O)CC(O)CC(O)CC(O)CC(O)CC(O)CC1O (stereo not drawn) | 1.04 |

* * *

# assay method text: chemical genetic growth profiling, strain panel (AID 1159580);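 further: tested at 20 µM; growth read once vehicle control cultures reached saturation at 30 °C; 1 = growth at the plate median or of vehicle wells; lower values mean less growth of the strain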
# stated conditions: S. cerevisiae deletion strains, growth OD, locus YLL041C, strain sdh2, active compounds read low
Hit rate of the full screen: of about 5,500 compounds, about 2,000 (36%) were called active. Another 18% or so got no clear call; they are omitted. The list shows a part of the results.
Listed here: items and their measured normalized growth.

| compound | normalized growth |
| --- | --- |
| CC1(C)Oc2ccc3ccc(=O)oc3c2CC1O (stereo not drawn) | 0.989 |
| C[C@H]1O[C@H](O[C@H]2[C@H](O)[C@@H](O)[C@@H](O[C@H]3[C@H](O)[C@@H](O)C(O)O[C@@H]3CO)O[C@@H]2CO)[C@H](O)[C@@H](O)[C@@H]1N[C@H]1C=C(CO)[C@@H](O)[C@H](O)[C@H]1O (stereo partly drawn) | 0.988 |
| COc1cc(O)c2c(=O)cc(-c3ccc(OC)c(-c4c(O)cc(O)c5c(=O)cc(-c6ccc(O)cc6)oc45)c3)oc2c1 | 1.02 |
| COc1ccccc1N1CCN(CCCNc2cc(=O)n(C)c(=O)n2C)CC1 | 1.01 |
| COc1cc(C(=O)N2CCOCC2)cc(OC)c1OC | 0.981 |
| COc1cc2c(cc1OC)-c1c(oc3cc(O)cc(O)c3c1=O)CO2 | 0.973 |
| CCCc1nn(C)c2c(=O)[nH]c(-c3cc(S(=O)(=O)N4CCN(C)CC4)ccc3OCC)nc12 | 0.992 |
| COC(=O)[C@H]1[C@H]2C[C@H]3c4[nH]c5cc(OC)ccc5c4CCN3C[C@H]2C[C@@H](OC(=O)c2cc(OC)c(OC)c(OC)c2)[C@@H]1OC | 1.01 |
| CCc1ccc2c(O)c3c(cc2c1C(=O)OC)C(=O)c1c(O)ccc(O)c1C3=O | 0.999 |
| COC1CC(O[C@H]2CC[C@]3(C=O)C4CC[C@]5(C)C(C6=CC(=O)OC6)CC[C@]5(O)C4CC[C@]3(O)C2)OC(C)C1O (stereo partly drawn) | 0.971 |
| Cc1ccccc1N1C(=O)c2cc(S(N)(=O)=O)c(Cl)cc2NC1C (stereo not drawn) | 0.988 |
| O=C1CC2(CCCC2)CC(=O)N1CCCCN1CCN(c2ncccn2)CC1 | 0.999 |
| C/C=C(\C)C(=O)O[C@@H]1c2c(ccc3ccc(=O)oc23)OC(C)(C)[C@@H]1OC(C)=O | 0.998 |
| O=C(O)c1ccccc1O | 0.99 |
| CC1Cc2ccccc2N1NC(=O)c1ccc(Cl)c(S(N)(=O)=O)c1 (stereo not drawn) | 0.998 |
| CO[C@@H]1[C@@H](OC(N)=O)[C@@H](O)[C@H](Oc2ccc3c(O)c(NC(=O)c4ccc(O)c(CC=C(C)C)c4)c(=O)oc3c2C)OC1(C)C | 1.02 |
| NCCCC(O)(P(=O)(O)O)P(=O)(O)O | 1.01 |
| N#Cc1c(Cl)cccc1Cl | 0.977 |
| O=C(CCCN1CCN(c2ccccn2)CC1)c1ccc(F)cc1 | 0.984 |
| NCCCN | 0.987 |
| COC(=O)C(N)CS (stereo not drawn) | 0.985 |
| C=CCSCC=C | 0.975 |
| Cc1c(C(N)=O)cc([N+](=O)[O-])cc1[N+](=O)[O-] | 1.02 |
| Nc1nc(/C(=C/CC(=O)O)C(=O)N[C@@H]2C(=O)N3C(C(=O)O)=CCS[C@H]23)cs1 | 1.01 |
| COC1=CC(=O)C=C(OC)C1=O | 1.01 |
| CC1(C)S[C@@H]2[C@H](NC(=O)C(C(=O)O)c3ccccc3)C(=O)N2[C@H]1C(=O)O (stereo partly drawn) | 0.982 |
| COC(=O)N/N=C\c1c[n+]([O-])c2ccccc2[n+]1[O-] | 0.993 |
| CC(C)C[C@@H](NC(=O)OCC1c2ccccc2-c2ccccc21)C(=O)O | 1 |

* * *

# assay method text: chemical genetic growth profiling, strain panel (AID 1159580);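 further: tested at 20 µM; growth read once vehicle control cultures reached saturation at 30 °C; 1 = growth at the plate median or of vehicle wells; lower values mean less growth of the strain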
# stated conditions: S. cerevisiae deletion strains, growth OD, locus YEL061C, strain CIN8, active compounds read low
Screen size: about 5,500 compounds; about 2,000 (36%) were called active. About 18% were inconclusive and are not listed. This is one part of the list.
Listed here: items and their measured normalized growth.
observable: normalized growth

| molecule | observable | meas value |
| --- | --- | --- |
| C[C@H]1[C@H](C)CC[C@]2(C(=O)O)CC[C@]3(C)C(=CCC4[C@@]5(C)C[C@@H](O)[C@H](O)[C@@](C)(CO)C5[C@H](O)C[C@]43C)[C@H]12 (stereo partly specified) | normalized growth | 0.961 |
| N#CCCN1C(=O)C2(OCCO2)c2ccccc21 | normalized growth | 0.997 |
| CC(C)(C)c1ccc(Oc2ncccc2NC(=O)c2ccccc2C(F)(F)F)cc1 | normalized growth | 1 |
| CCSc1ncccc1C(=O)N[C@@H](CCSC)C(=O)OC | normalized growth | 1.02 |
| COC(=O)c1cccnc1Sc1ccc(C)cc1 | normalized growth | 0.956 |
| CC(=O)C1=C(C)Nc2ccccc2S1 | normalized growth | 0.943 |
| C/C=C(\C)C(=O)O[C@@H]1c2c(ccc3ccc(=O)oc23)OC(C)(C)[C@@H]1OC(C)=O | normalized growth | 0.991 |
| CC1CC(=O)Nc2ccccc2N1C(=O)c1ccc([N+](=O)[O-])cc1 (stereo unspecified) | normalized growth | 0.991 |
| COP(N)(=O)SC (stereo unspecified) | normalized growth | 1 |
| Oc1ccc2c3c1OC1[C@@H](O)CC[C@@]4(O)[C@@H](C2)N(CC2CCC2)CC[C@]314 (stereo partly specified) | normalized growth | 1.01 |
| O=C1C(c2ccc(Br)cc2)=C(O)c2ccccc21 | normalized growth | 0.99 |

* * *

# assay method text: chemical genetic growth profiling, strain panel (AID 1159580);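 further: tested at 20 µM; growth read once vehicle control cultures reached saturation at 30 °C; 1 = growth at the plate median or of vehicle wells; lower values mean less growth of the strain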
# stated conditions: S. cerevisiae deletion strains, growth OD, locus YOR001W, strain rrp6, active compounds read low
The whole screen tested about 5,500 compounds, of which about 2,000 (36%) were called active. Inconclusive results (about 18%) are left out. Some of the results follow.
observable: normalized growth

| compound | observable | meas value |
| --- | --- | --- |
| COC(=O)NC(=S)Nc1ccccc1NC(=S)NC(=O)OC | normalized growth | 0.986 |
| NS(=O)(=O)c1cc2c(cc1C(F)(F)F)NC(Cc1ccccc1)NS2(=O)=O (centres undefined) | normalized growth | 0.997 |
| C[C@@H]1O[C@@H](O[C@H]2CC[C@]3(C=O)C4CC[C@]5(C)[C@@H](C6=CC(=O)OC6)CC[C@]5(O)C4CC[C@]3(O)C2)[C@H](O)[C@H](O)[C@H]1O (some centres undefined) | normalized growth | 1 |
| C[C@H]1[C@H](C)CC[C@]2(C(=O)O)CC[C@]3(C)C(=CCC4[C@@]5(C)C[C@@H](O)[C@H](O)[C@@](C)(CO)C5CC[C@]43C)[C@H]12 (some centres undefined) | normalized growth | 0.973 |
| CSc1nc(NC(C)C)nc(NC(C)C)n1 | normalized growth | 0.98 |
| CN(C)CC[C@H](c1ccc(Cl)cc1)c1ccccn1 | normalized growth | 0.987 |
| CC(=O)O[C@@H]1CC2C(C)(CC[C@H](O)C2(C)C)C2CC[C@]3(C)C(=CC(=O)O[C@H]3c3ccoc3)C21C (some centres undefined) | normalized growth | 1.01 |
| NCCCC(O)(P(=O)(O)O)P(=O)(O)O | normalized growth | 0.983 |
| CC1(C)S[C@@H]2C(N3C(=O)[C@@H](c4ccccc4)NC3(C)C)C(=O)N2[C@H]1C(=O)O (some centres undefined) | normalized growth | 1.01 |
| COC1CC(OC2CCC3(C)C(CCC4C3CCC3(C)C(C5=CC(=O)OC5)C(OC(C)=O)CC43O)C2)OC(C)C1O (centres undefined) | normalized growth | 1.02 |
| COc1c(O)cc2c(c1O)[C@H]1O[C@H](CO)[C@@H](O)[C@H](O)[C@@H]1OC2=O | normalized growth | 1.01 |
| COC(=O)N/N=C\c1c[n+]([O-])c2ccccc2[n+]1[O-] | normalized growth | 0.989 |
| O=c1c(-c2ccc(O)cc2)coc2c(C3O[C@H](CO)[C@@H](O)[C@H](O)[C@H]3O)c(O)ccc12 (some centres undefined) | normalized growth | 1.01 |
| CCc1ccc2c(O)c3c(cc2c1C(=O)OC)C(=O)c1c(O)ccc(O)c1C3=O | normalized growth | 0.973 |
